Experimental target: HGF (hepatocyte growth factor/scatter factor) (UniProt P14210;P14210 P14210:32-494,P14210:495-728)
Sequence (P14210 32-494, chain 1 of 2): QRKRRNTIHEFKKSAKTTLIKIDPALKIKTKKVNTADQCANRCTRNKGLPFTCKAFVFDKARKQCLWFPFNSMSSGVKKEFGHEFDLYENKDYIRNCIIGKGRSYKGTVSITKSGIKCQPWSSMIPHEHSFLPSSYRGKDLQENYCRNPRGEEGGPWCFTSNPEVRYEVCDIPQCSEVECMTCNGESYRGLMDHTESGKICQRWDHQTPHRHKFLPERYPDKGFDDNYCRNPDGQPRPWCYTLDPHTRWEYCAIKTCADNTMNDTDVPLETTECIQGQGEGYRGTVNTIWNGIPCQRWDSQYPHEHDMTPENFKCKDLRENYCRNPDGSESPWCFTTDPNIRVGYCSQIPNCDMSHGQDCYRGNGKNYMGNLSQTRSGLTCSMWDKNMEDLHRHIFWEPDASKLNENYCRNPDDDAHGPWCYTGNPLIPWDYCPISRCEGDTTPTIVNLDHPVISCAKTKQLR
Sequence (P14210 495-728, chain 2 of 2): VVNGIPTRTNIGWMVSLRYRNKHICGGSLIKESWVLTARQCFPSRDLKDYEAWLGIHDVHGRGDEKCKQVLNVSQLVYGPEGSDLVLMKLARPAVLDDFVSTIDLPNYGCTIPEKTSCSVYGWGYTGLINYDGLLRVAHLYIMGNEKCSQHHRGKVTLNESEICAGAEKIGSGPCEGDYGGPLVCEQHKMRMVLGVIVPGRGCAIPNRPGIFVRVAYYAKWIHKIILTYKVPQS
Protocol description: filter; HBSMC, 37C
Settings: tags: R&D Systems
This listing pairs binders with measured Kd.
Attribute measured: Kd (nM)

binder="10-31 (ssRNA, 2'-F pyrimidines) RNA: GGGAGAUAAGAAUAAACGCUCAAGGGUUCCUGAUUGACCCUGUCUCUAGACCCUUCGACAGGAGGCUCACAACAGGC" measurement_unit=nM number=1.9
binder="11-126 (ssRNA, 2'-F pyrimidines) RNA: GGGAGGACGAUGCGGGUUUGGGUCUUGAUCUCGUCUUGUCCCGUGCAGACGACUCGCCCGA" measurement_unit=nM number=0.17
binder="11-8 (ssRNA, 2'-F pyrimidines) RNA: GGGAGGACGAUGCGGUCAGUAUGACUUUUAUAGCACGUUCGCCCCAGACGACUCGCCCGA" measurement_unit=nM number=0.15
